Test system: Plasmodium falciparum
protocolDetails: Calibr Malaria Delayed Death Assay SOP
Format: functional, organism-based
Each entry below lists one item and its recorded pIC50 value.
Reply with just the number.

>>> reportedmeasurement("Cc1cccc(NC(=O)c2cccc(OCc3nnnn3C)c2)n1")
6.563

Now, please, on to the next molecule.
## Input Return reported pIC50 for target or system Plasmodium falciparum, item COCCn1ccnc1CN(Cc1ccccn1)Cc1sccc1C .
## Output 6.065

###

Tested on: Leishmania donovani
protocolDetails: Leishmania intramacrophage assay
Assay type: functional, organism-based
appliedConditions: Leishmania donovani
measure: IC50

In the examples that follow, each entry is paired with its recorded IC50.
>>> reportedmeasurement("Clc1ccccc1C1(c2ccnc(-c3ncccn3)n2)CCNCC1")
"> 50.1 µM"
>>> reportedmeasurement("Cl.NCC(=O)N1CCC(c2ccnc(Nc3cc(C(F)(F)F)ccn3)n2)C1 (stereo unspecified)")
"15 µM"
>>> reportedmeasurement("Cc1ccc(CN2CCC(F)(F)C3(CCN(c4cnccn4)C3)C2)o1 (stereo unspecified)")
"> 50.1 µM"

Now, please, on to the next compound.
## Input Read off the recorded IC50 for Cn1cc(CN2CCC(F)(F)C3(CCN(c4ncc(F)cn4)C3)C2)cn1 (stereo unspecified)
## Output > 50.1 µM

###

protocolDetails: microbe, parasite or virus in culture
appliedConditions: Mycobacterium tuberculosis, 96 h, read-out: pIC50 (converted)
Each entry below lists one item and its recorded IC50 value.

In the examples that follow, each entry is paired with its recorded IC50.
>>> reportedmeasurement("Cc1ccc(N2N=C(C(N)=O)S(=O)(=O)c3cccnc32)cc1")
"36 µM"
>>> reportedmeasurement("CN1CCN(C(=O)CC2Cc3ccccc3C2)CC1")
"43.7 µM"
>>> reportedmeasurement("O=C(Cn1cnnn1)NCC1(c2ccccc2)CCC1")
"> 501 µM"
>>> reportedmeasurement("O=C(CNc1ccc(Br)cc1)NCc1ncc[nH]1")
"> 501 µM"
>>> reportedmeasurement("CCCn1ccc(NC(=O)c2cccc(C#N)c2)n1")
"> 501 µM"

## Input Read off the recorded IC50 for COCCN1CCN(C(C)C(=O)Nc2ccnn2C(C)C)CC1 (stereo not drawn)
## Output > 50.1 µM

## Input Read off the recorded IC50 for COc1cccc(CNCc2cccnc2-n2cccn2)c1OC
## Output > 50.1 µM

## Input Read off the recorded IC50 for Nc1ncccc1C(=O)NCCC1=CCCCC1
## Output > 501 µM

## Input Read off the recorded IC50 for COCC(C)(CCO)NCC(=O)Nc1ccccc1I (stereo not drawn)
## Output > 501 µM

## Input Read off the recorded IC50 for O=C(NCCSCc1cccc(Cl)c1)C1CNCCO1 (stereo not drawn)
## Output 259 µM

## Input Read off the recorded IC50 for CN(C)CCOc1ccccc1CN
## Output > 501 µM

## Input Read off the recorded IC50 for CCC1(CO)CCCN(CCn2cc(Cl)cn2)C1 (stereo not drawn)
## Output 144 µM

## Input Read off the recorded IC50 for Cc1nc(N(C)C/C=C/c2ccccc2)c2cnn(C)c2n1
## Output > 50.1 µM

###

System: Schistosoma mansoni
protocolDetails: High throughput screening of compounds against Schistosoma mansoni motility
Assay type: functional
Parameters: dose or concentration left out as unconfirmed
Each entry below lists one item and its recorded Percent Effect value.
Answer with a number only, understood to be in %.

In the examples that follow, each entry is paired with its recorded Percent Effect.
>>> reportedmeasurement("CCC1CN(C(=O)c2ccc(=O)[nH]c2)CCC(=O)N1Cc1ccccc1 (configuration not stated)")
-27.12
>>> reportedmeasurement("CC(OCC(F)(F)F)C(=O)N1CCN(S(C)(=O)=O)CC1 (configuration not stated)")
-54.53
>>> reportedmeasurement("CSCCC(=O)N1CCCC1c1ccsc1 (configuration not stated)")
-17.9
>>> reportedmeasurement("Cc1cc(N(C)Cc2cc(C)on2)n2nc(C)c(C)c2n1")
-4.677
>>> reportedmeasurement("N#Cc1ccc(OC2CCN(C(=O)c3ccc4c(c3)OCO4)CC2)nc1")
-46.44

## Input Read off the recorded Percent Effect for CC(=O)NC(C)CC(=O)NCc1cccnc1Oc1ccccc1C (configuration not stated)
## Output 11.59

## Input Read off the recorded Percent Effect for CCc1c(C)sc(NC(=O)CN2CCN(CC)CC2)c1C(=O)OC
## Output 98.89

## Input Read off the recorded Percent Effect for CCc1cc(=O)[nH]c2nnc(SCC(=O)OC)n12
## Output -72.76

## Input Read off the recorded Percent Effect for CC(C)CNC(=O)NC(=O)CNc1ccccc1SCC(C)C#N (configuration not stated)
## Output -9.977

## Input Read off the recorded Percent Effect for COCCNS(=O)(=O)c1cccc2c1CN(C(=O)c1ccccc1)CC2
## Output 10.23

## Input Read off the recorded Percent Effect for Cc1cc(C)n(CC2CCCN2C(=O)c2ccc3c(c2)nnn3C)n1 (configuration not stated)
## Output -59.08

## Input Read off the recorded Percent Effect for c1csc(-c2nc(CN3CCCC3Cn3cncn3)co2)c1 (configuration not stated)
## Output -94.11

###

Each entry below lists one item and its recorded IC50 value.
protocolDetails: microbe, parasite or virus in culture
appliedConditions: Mycobacterium tuberculosis, 96 h, read-out: pIC50 (converted)

## Input Read off the recorded IC50 for CN(C1CCCCC1)S(=O)(=O)NC1CCCCNC1=O (configuration not stated)
## Output > 501 µM

## Input Read off the recorded IC50 for O=C1CCN(CCOc2cc(F)cc(Br)c2)CCN1
## Output 279 µM

## Input Read off the recorded IC50 for CN1CCOC[C@H]1c1nc(-c2cccnc2)c[nH]1
## Output > 50.1 µM

## Input Read off the recorded IC50 for NC(=O)CCSCc1ccn(-c2ccccc2)n1
## Output 229 µM

## Input Read off the recorded IC50 for COc1cccc2c1CCNCC2
## Output 348 µM

## Input Read off the recorded IC50 for CCCc1nnc(N2CCC3(CC2)OCC(C)O3)s1 (configuration not stated)
## Output 45.5 µM

## Input Read off the recorded IC50 for CNC(=O)COc1cccc(OCC2CC2)c1
## Output 188 µM

###

Each entry below lists one item and its recorded pIC50 value.
Test system: Wolbachia pipientis
protocolDetails: Anti-Wolbachia Cell-Based Screen
Assay type: functional
appliedConditions: Wolbachia pipientis
Scale note: pIC50 = -log10(concentration in M).

>>> reportedmeasurement("CCn1c(CNC(=O)Nc2nc(C)c(C)o2)nc2ccccc21")
5.72

## Input Read off the recorded pIC50 for CC(=O)NC(C)c1ccc(OCC2CC2)c(F)c1 (configuration not stated)
## Output 5.83

## Input Read off the recorded pIC50 for Cc1nc(N2CCC3(CCOC3)C2)c2cc[nH]c2n1 (configuration not stated)
## Output 5.62

## Input Read off the recorded pIC50 for Cc1c[nH]c(CN2CCOC(c3ccc(Cl)c(Cl)c3)C2)c(C)c1=O (configuration not stated)
## Output 5.42

## Input Read off the recorded pIC50 for CS(=O)(=O)N1CCCC1c1cccc(Nc2nccs2)n1 (configuration not stated)
## Output 5.04

###

testSystem: Histidine--tRNA ligase (Trypanosoma cruzi (strain CL Brener))
Sequence (Q4DA54 whole entry): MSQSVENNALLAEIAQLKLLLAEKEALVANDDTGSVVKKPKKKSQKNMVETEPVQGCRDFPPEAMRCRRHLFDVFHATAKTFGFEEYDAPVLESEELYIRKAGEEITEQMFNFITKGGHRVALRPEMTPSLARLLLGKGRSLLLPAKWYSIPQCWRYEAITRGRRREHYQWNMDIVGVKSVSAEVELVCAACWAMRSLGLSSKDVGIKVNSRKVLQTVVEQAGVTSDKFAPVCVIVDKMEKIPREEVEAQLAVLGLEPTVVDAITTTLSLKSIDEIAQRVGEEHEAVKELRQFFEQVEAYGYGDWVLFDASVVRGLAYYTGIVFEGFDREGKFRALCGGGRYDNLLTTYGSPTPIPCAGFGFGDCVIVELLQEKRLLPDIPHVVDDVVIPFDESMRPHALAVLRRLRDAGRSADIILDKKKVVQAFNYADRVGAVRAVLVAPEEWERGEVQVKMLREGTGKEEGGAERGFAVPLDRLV
protocolDetails: Trypanosoma cruzi histidyl tRNA synthetase (Tc-HisRS)
pIC50: −log10 of the molar value.
measure: pIC50

>>> reportedmeasurement("Fc1cc(F)cc(CN2CCC(c3cc4ncccc4cn3)CC2)c1")
"< 4.00"
>>> reportedmeasurement("Cn1cc(NC(=O)N2CCC(CN3CCCC3)CC2)ccc1=O")
"< 4.00"
>>> reportedmeasurement("CCN1CCC2(CCN(c3ncccn3)CC2)C1=O")
"< 4.00"
>>> reportedmeasurement("Cc1cc(C)n(CC2CCCN2Cc2nc(N)c3ccccc3n2)n1 (configuration not stated)")
"< 4.00"
>>> reportedmeasurement("Cc1cc(=O)n(C)cc1NC(=O)Cc1cccc(F)c1")
5.21
>>> reportedmeasurement("Cc1cc(=O)n(C)cc1NC(=O)Cc1cccc(Cl)c1")
5.32

## Input Read off the recorded pIC50 for CN(Cc1nc2ccccc2o1)CC1CCCN1c1cccnn1 (configuration not stated)
## Output < 4.00

## Input Read off the recorded pIC50 for c1ccc(N2CCOCC3(CCCN(c4nccs4)C3)C2)nc1 (configuration not stated)
## Output < 4.00

## Input Read off the recorded pIC50 for Cc1nc(CN(C)CC2CCCN2c2cccnn2)oc1C (configuration not stated)
## Output < 4.00

## Input Read off the recorded pIC50 for O=C(O)c1ccc(Cc2cccc(F)c2)nc1
## Output < 4.00

## Input Read off the recorded pIC50 for c1cnnc(N2CCCC(NCc3nc(-c4ccsc4)no3)C2)c1 (configuration not stated)
## Output < 4.00

## Input Read off the recorded pIC50 for O=C1N(CC2CCCC2)CCC12CCN(c1ncc(F)cn1)CC2
## Output < 4.00
